Just for reference, PubChem BioAssay AID743366 is where these values come from.

assay.comment: qHTS profiling of inhibitors of Plasmodium falciparum (HB3) proliferation (acoustic dispense)
settings: P. falciparum HB3 in erythrocytes, SYBR Green, 72 h; at 49.8 µM (top of the series) unless noted
Procedure: Plasmodium falciparum is a virulent malarial parasite that kills 1-2 million people worldwide each year. […] Because mature erythrocytes lack DNA, only Plasmodium-derived DNA is detected. The SYBR Green viability assay was adapted from a method described previously (Plouffe et al., 2008). […] The following morning, fluorescence intensity at 485(14) nm excitation and 535(25) nm emission wavelengths was measured on an EnVision (Perkin Elmer) plate reader. […]
endpoint.name: activity (normalised, proliferation) (%)
The answer is to be given in %; state only the numeric part.

query: Return activity (normalised, proliferation) (reported value) for this compound: O=c1[nH]c2ccc(Cl)cc2c(N[C@@H]2CN3CCC2CC3)c1-c1nc2ccccc2[nH]1
result: -0.29

query: Please give the documented activity (normalised, proliferation) of CC=C1C2C=C(C)CC1(N)c1ccc(=O)[nH]c1C2 (configuration not stated)
result: 103

query: Supply recorded activity (normalised, proliferation) for CC(=Cc1csc(C)n1)[C@@H]1C[C@H]2O[C@@H]2CCC[C@H](C)[C@@H](O)[C@@H](C)C(=O)C(C)(C)[C@@H](O)CC(=O)O1 here.
result: 10.3

query: Give a short answer stating reported activity (normalised, proliferation) for COC1=CC(C)=C[C@@H](C)[C@@H](O)[C@@H](C)CC(C)=CC=C[C@H](OC)[C@H]([C@@H](C)[C@@H](O)[C@H](C)[C@@]2(O)C[C@@H](O)[C@H](C)[C@@H](C(C)C)O2)OC1=O .
result: 0.863

query: Read off the recorded activity (normalised, proliferation) for C[C@@H]1C[C@@H]([C@H](O)CC2CC(=O)NC(=O)C2)C(=O)[C@@H](C)C1
result: 0.071

query: Indicate its recorded activity (normalised, proliferation); the compound in question is C[C@H]1CCCC=CC2C[C@H](O)C[C@@H]2[C@H](O)C=CC(=O)O1 (some centres not stated)
result: -0.991
